Reference source for all entries: PubChem BioAssay AID1159580

# assay.text: chemical genetic growth profiling, strain panel (AID 1159580);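 further: tested at 20 µM; growth read once vehicle control cultures reached saturation at 30 °C; 1 = growth at the plate median or of vehicle wells; lower values mean less growth of the strain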
# settings: S. cerevisiae deletion strains, growth OD, locus YGR078C, strain PAC10, active compounds read low
The whole screen tested about 5,500 compounds, of which about 2,000 (36%) were called active. About 18% were inconclusive and are not listed. This is one part of the list.
property.name: normalized growth
Form field (numeric): enter value without unit.

Look up normalized growth: O=S(=O)(Oc1ccc(OCc2ccccc2)cc1)c1cc(Cl)cc(Cl)c1
1

Look up normalized growth: NC(=O)NC(=O)Cc1ccccc1
1.01

Look up normalized growth: NC(N)=NC(N)=Nc1ccc2c(c1)OCCO2
0.99

Look up normalized growth: O=C1c2ccccc2C(=O)N1CN(CCSc1ccccc1)CN1C(=O)c2ccccc2C1=O
0.993

Look up normalized growth: CCCc1cc(=O)oc2cc(OCC(=O)OCC)ccc12
0.985

Look up normalized growth: CCCCCCc1cc2c(C)cc(=O)oc2cc1O
0.996

Look up normalized growth: Cc1cccc(C)c1N=C1SCCS1
0.99

Look up normalized growth: O=C1NC2CC2N1C(=O)OCc1ccccc1 (centres undefined)
1.01

Look up normalized growth: Fc1cc(F)cc(COc2cc(Cl)cc(Cl)c2)c1
0.96

Look up normalized growth: Oc1c(Cl)cc(Cl)cc1Sc1cc(Cl)cc(Cl)c1O
0.981

Look up normalized growth: C[n+]1ccccc1/C=N/O
1.01

====

This section presents compounds with their documented normalized growth values.
# assay.text: chemical genetic growth profiling, strain panel (AID 1159580);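 further: tested at 20 µM; growth read once vehicle control cultures reached saturation at 30 °C; 1 = growth at the plate median or of vehicle wells; lower values mean less growth of the strain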
# settings: S. cerevisiae deletion strains, growth OD, locus YDR150W, strain NUM1, active compounds read low
In all, about 5,500 compounds went through this assay and about 2,000 (36%) were called active. Another 18% or so got no clear call; they are omitted. This is one part of the list.
Form field (numeric): enter value without unit.

// below: answered compounds
compound	normalized growth
CN=C(NC#N)Nc1ccc(C2=NNC(=O)CC2C)cc1 (stereo not given)	1.01
CC1(C)CC2C1CC[C@]1(CBr)CCC3C(CC(=O)O)C(=O)O[C@@]32C1 (stereo not given in full)	1
CN(C)C(=O)Oc1cccc([N+](C)(C)C)c1	1
O=P1(N(CCCl)CCCl)NCCCO1 (stereo not given)	0.996

Look up normalized growth: CC(=O)Oc1ccc(O)cc1
0.999

Look up normalized growth: CC(=O)N[C@@H](Cc1c[nH]c2ccccc12)C(N)=O
0.972

Look up normalized growth: COc1c(Br)cc(/C(N)=N\OC(=O)c2c(-c3c(Cl)cccc3Cl)noc2C)cc1Br
1.02

Look up normalized growth: CC(=O)Oc1ccc(C(c2ccc(OC(C)=O)cc2)c2ccccn2)cc1
0.99

Look up normalized growth: CC(Cc1cccc(C(F)(F)F)c1)NCCOC(=O)c1ccccc1 (stereo not given)
0.997

Look up normalized growth: C#CCN[C@H](C)Cc1ccccc1
0.997

====

This section presents compounds with their documented normalized growth values.
# assay.text: chemical genetic growth profiling, strain panel (AID 1159580);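 further: tested at 20 µM; growth read once vehicle control cultures reached saturation at 30 °C; 1 = growth at the plate median or of vehicle wells; lower values mean less growth of the strain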
# settings: S. cerevisiae deletion strains, growth OD, locus YBR171W, strain sec66, active compounds read low
Out of some 5,500 compounds screened, about 2,000 (36%) were called active. Another 18% or so got no clear call; they are omitted. This is one part of the list.
Form field (numeric): enter value without unit.

// below: answered compounds
compound	property.name	result
O=C(O)c1cc(O)c2c(c1)[C@@H]([C@H]1c3cc(C(=O)O)cc(O)c3C(=O)c3c(O[C@H]4O[C@H](CO)[C@@H](O)[C@H](O)[C@H]4O)cccc31)c1cccc(O[C@H]3O[C@H](CO)[C@@H](O)[C@H](O)[C@H]3O)c1C2=O	normalized growth	1.02
CC(=O)O[C@H]1CCC2(C)C3=C(CCC2C1(C)C)[C@]1(C)CCC(C(C)CCC=C(C)C)[C@@]1(C)CC3 (some centres not stated)	normalized growth	0.994
CN(C)[C@@H]1C(=O)C(C(N)=O)=C(O)[C@@]2(O)C(=O)C3=C(O)c4c(O)ccc(Cl)c4[C@@](C)(O)[C@H]3C[C@@H]12	normalized growth	0.979

# ---- query compound ----
Look up normalized growth: CO[C@H]1CC(O[C@@H]2/C(C)=C/C[C@@H]3C[C@@H](C[C@]4(CC[C@H](C)[C@@H](C5CCCCC5)O4)O3)OC(=O)[C@@H]3C=C(C)/C(=N\O)[C@H]4OC/C(=C\C=C\[C@@H]2C)[C@]43O)O[C@@H](C)C1O (some centres not stated)
0.988
